// provenance: patent US8895585B2

Biological target: glutathione S-transferase (GST)-fused full-length human Syk protein (Homo sapiens, UniProt P43405)
Construct: (GST)-fused full-length human Syk protein; GST (glutathione S-transferase); purchased Carna Biosciences
Experiment: Syk enzyme assay
Type: biochemical
Conditions: Syk enzyme assay, Test Example 1; read-out: IC50 of Syk-inhibitory activity
pIC50: −log10 of the molar value.

Compound | pIC50
CCC[C@@H](Nc1nc(Nc2ccc3c(cnn3CC(F)F)c2)c(C(N)=O)cc1F)[C@H](C)N [Example 006-424] | 7.30 to 8.00
NC(=O)c1cc(F)c(NC2CCCCC2N)nc1Nc1ccc2nn(Cc3ccccc3)cc2c1 (stereo not shown) [Example 002-037] | > 8.00
CC(C)COCCOc1nccc2cc(Nc3nc(N[C@@H]4CCCC[C@@H]4N)c(F)cc3C(N)=O)ccc12 (relative stereo) [Example 004-170] | > 8.00
NC(=O)c1cc(F)c(N[C@@H]2CCCC[C@@H]2N)nc1Nc1cnc(N2CCOCC2)c2[nH]ccc12 [Example 004-234] | 7.30 to 8.00
COc1ccc2cc(Nc3nc(N[C@@H]4CCCC[C@@H]4N)c(F)cc3C(N)=O)cnc2c1 [Example 006-172] | > 8.00
COCCn1cc2c(Nc3nc(NC4CCCCC4N)c(F)cc3C(N)=O)cccc2n1 (stereo not shown) [Example 002-034] | > 8.00
NC(=O)c1cc(F)c(NC2CCCCC2N)nc1Nc1cnc2ccccc2c1 (stereo not shown) [Example 008-004] | > 8.00
